- TEST SYSTEM: human FXR (NR1H4) (Homo sapiens)
- Sequence (Q96RI1 1-476 isoform Q96RI1-1): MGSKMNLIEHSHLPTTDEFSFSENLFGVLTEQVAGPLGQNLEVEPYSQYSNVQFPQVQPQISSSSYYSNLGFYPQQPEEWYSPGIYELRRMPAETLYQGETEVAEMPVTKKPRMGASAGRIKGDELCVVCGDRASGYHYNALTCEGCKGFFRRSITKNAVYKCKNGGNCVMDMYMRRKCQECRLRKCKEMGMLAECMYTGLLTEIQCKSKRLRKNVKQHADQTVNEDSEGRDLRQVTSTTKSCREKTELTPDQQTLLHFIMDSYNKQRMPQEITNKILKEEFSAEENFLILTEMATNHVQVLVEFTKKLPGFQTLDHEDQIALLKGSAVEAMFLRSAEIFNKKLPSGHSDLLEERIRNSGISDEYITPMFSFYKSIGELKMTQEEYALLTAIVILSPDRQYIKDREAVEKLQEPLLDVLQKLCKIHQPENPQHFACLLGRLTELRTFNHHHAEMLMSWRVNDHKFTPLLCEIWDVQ
- ASSAY PROCEDURE: Human FXR (NR1H4) agonist assessment, FXRE-NanoLuc reporter in HEK293T cells
- Format: cell-based
- CONDITIONS USED: FXR activation, HEK293T FXRE-NanoLuc reporter, 24 hr; read-out: EC50
Reported EC50 is given for each of the following molecules.

Examples from the recorded data:
>>> value("CC[C@H]1[C@@H](O)[C@@H]2[C@H](CC[C@]3(C)[C@@H]([C@H](C)CCNC(=O)NS(=O)(=O)c4ccc(C(C)(C)CF)cc4)CC[C@@H]23)[C@@]2(C)CC[C@H](F)C[C@@H]12")
"< 1000 nM"
>>> value("C[C@H](CCCCNC(=O)NS(=O)(=O)c1ccc(C(C)(C)CF)cc1)[C@H]1CC[C@H]2[C@@H]3CC[C@@H]4CCCC[C@]4(C)[C@H]3CC[C@]12C")
"1000 to 10000 nM"
>>> value("CC[C@H]1[C@@H](O)[C@@H]2[C@H](CC[C@]3(C)[C@@H]([C@H](C)CCOC(=O)NS(=O)(=O)c4ccc5c(c4)CCC(C)(C)O5)CC[C@@H]23)[C@@]2(C)CCCC[C@@H]12")
"< 1000 nM"

Problem: Provide the documented EC50 with human FXR (NR1H4) (Homo sapiens) as the system for CC[C@H]1[C@@H](O)[C@@H]2[C@H](CC[C@]3(C)[C@@H]([C@H](C)CCNC(=N)N)CC[C@@H]23)[C@@]2(C)CCCC[C@@H]12
Result: < 1000 nM

Problem: Provide the documented EC50 with human FXR (NR1H4) (Homo sapiens) as the system for CC[C@H]1[C@@H](O)[C@@H]2[C@H](CC[C@]3(C)[C@@H]([C@H](C)CCNC(=O)NS(=O)(=O)Cc4ccccc4)CC[C@@H]23)[C@@]2(C)CCCC[C@@H]12
Result: < 1000 nM
